tested on: human spermatozoa; test: total motile sperm, percent change vs DMSO (non-capacitating); higher = more of the measured sperm population than DMSO, for viability, fewer PI-positive (dead) cells than DMSO; settings: incubation time: 6h incubation, 9.99 µM;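 further: sperm pooled from at least 3 donors, tracked in 0.5 s time-lapse movies by automated microscopy after 10 min, 3 h or 6 h with compound at 10 or 30 µM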
The following compounds are shown together with reported total motile sperm values.
Output spec: scalar in %, unitless text.

Use the examples below as a reference point.
1) O=c1sn(-c2cccc3ccccc23)c(=O)n1Cc1ccccc1 : -6.75
2) CC(C)(C)c1ccc(S(=O)(=O)Nc2cnc3[nH]c(C(=O)N[C@H]4CCC[C@H]4O)c(-c4ccccc4)c3c2)cc1 : -0.468
3) CC(C)(C)c1ccc(S(=O)(=O)Nc2ccc(OC(F)(F)F)c(F)c2-c2ccc(C(=O)O)c3ncccc23)cc1F : -5.81
4) C=CC[C@@H]1/C=C(\C)C[C@H](C)C[C@H](OC)[C@H]2O[C@@](O)(C(=O)C(=O)N3CCCC[C@H]3C(=O)O[C@H](/C(C)=C/[C@@H]3CC[C@@H](O)[C@H](OC)C3)[C@H](C)[C@@H](O)CC1=O)[C@H](C)C[C@@H]2OC : -8.35
5) Oc1c(Cl)cc(Cl)c(Cl)c1Cc1c(O)c(Cl)cc(Cl)c1Cl : -1.96

Recall the recorded total motile sperm for COc1cc(N2CCOCC2)ccc1Nc1ncc(F)c(Nc2ccccc2NS(C)(=O)=O)n1 with human spermatozoa and state it.
-5.57

Recall the recorded total motile sperm for COc1ccc(CCCN2CCC(COC(c3ccccc3)c3ccccc3)CC2)cc1 with human spermatozoa and state it.
-0.213

Recall the recorded total motile sperm for CCN(CC)C(=S)SSC(=S)N(CC)CC with human spermatozoa and state it.
-88.6
